- STUDY TARGET: DQB1*05:01
- ASSAY COMMENT: Peptide binding to HLA-DQ allele, competition assay
Overview of reported IC50 across a group of compounds:
The response must be a number in nM with no trailing unit.

1) CC[C@H](C)[C@H](NC(=O)[C@H](CC(C)C)NC(=O)[C@@H](N)CC(C)C)C(=O)N[C@@H](CC(=O)O)C(=O)N[C@H](C(=O)N[C@H](C(=O)N[C@H](C(=O)N[C@@H](Cc1ccc(O)cc1)C(=O)N[C@@H](CC(C)C)C(=O)N[C@H](C(=O)N[C@@H](C)C(=O)N[C@@H](CC(C)C)C(=O)N[C@H](C(=O)N1CCC[C@H]1C(=O)N[C@@H](CCC(=O)O)C(=O)O)[C@@H](C)CC)C(C)C)[C@@H](C)O)C(C)C)C(C)C [Peptide 3563.0002]	3620
2) CC[C@H](C)[C@H](NC(=O)[C@H](Cc1ccc(O)cc1)NC(=O)[C@H](Cc1c[nH]cn1)NC(=O)[C@H](CC(C)C)NC(=O)[C@@H](N)Cc1ccccc1)C(=O)N[C@@H](Cc1ccccc1)C(=O)N[C@@H](CCSC)C(=O)N[C@@H](CCC(=O)O)C(=O)N[C@@H](CC(N)=O)C(=O)N[C@@H](C)C(=O)N[C@@H](Cc1ccccc1)C(=O)N[C@@H](CCC(=O)O)C(=O)N[C@@H](CC(C)C)C(=O)N1CCC[C@H]1C(=O)N[C@H](C(=O)O)[C@@H](C)O [Peptide 3563.0006]	39

Consider now this further compound.
Look up IC50: CC(C)C[C@H](NC(=O)[C@H](CC(C)C)NC(=O)[C@H](Cc1ccccc1)NC(=O)[C@H](CCCCN)NC(=O)[C@H](CO)NC(=O)[C@H](Cc1ccc(O)cc1)NC(=O)[C@H](CC(C)C)NC(=O)[C@@H](N)CCC(N)=O)C(=O)N[C@@H](CCCCN)C(=O)N[C@@H](C)C(=O)N[C@@H](CCC(=O)O)C(=O)N1CCC[C@H]1C(=O)N[C@@H](CC(C)C)C(=O)N[C@@H](C)C(=O)N[C@@H](Cc1ccccc1)C(=O)O [Peptide 3563.0011]
588

---

- STUDY TARGET: DPB1*05:01
- ASSAY COMMENT: Peptide binding to HLA-DP allele, competition assay
- Parameters: species or system human
No end group written: not given here.
RESULT TYPE: IC50
Provide the measurement as a number trailed by its unit.

What does the data say about its IC50? Entry: LSQLTYMIQFDQYI [Peptide 3563.0012]
4.12 µM

---

- STUDY TARGET: DPB1*02:01
- ASSAY COMMENT: Peptide binding to HLA-DP allele, competition assay
- Text: Peptide binding to MHC-II requires anchor residues in certain positions and thus can be predicted using computer algorithms. Affinity can be measured experimentally using a competition assay (1). Both are excellent screening tools. However, affinity must be measured separately for each MHC-II allele. Humans express molecules encoded in four different MHC-II loci, denominated HLA-DRB1, DRB3/4/5, DP and DQ. […]
RESULT TYPE: IC50 (nM)
Record the value in nM, omitting the unit from your answer.

Solved entries:
1) CC[C@H](C)[C@H](NC(=O)[C@H](CC(C)C)NC(=O)[C@H](CCCCN)NC(=O)[C@H](CO)NC(=O)CNC(=O)[C@@H](N)C(C)C)C(=O)N[C@H](C(=O)N[C@@H](C)C(=O)N[C@@H](CCSC)C(=O)N[C@@H](CO)C(=O)N[C@@H](CO)C(=O)N[C@@H](Cc1c[nH]c2ccccc12)C(=O)N[C@@H](CC(C)C)C(=O)N[C@@H](CCC(N)=O)C(=O)N[C@@H](CCCCN)C(=O)O)C(C)C [Peptide 3563.0008]	128
2) CC[C@H](C)[C@H](NC(=O)[C@H](Cc1ccc(O)cc1)NC(=O)[C@H](CCC(N)=O)NC(=O)[C@H](Cc1c[nH]cn1)NC(=O)[C@@H](NC(=O)[C@@H](N)CCC(N)=O)[C@@H](C)CC)C(=O)N[C@@H](CCSC)C(=O)N[C@@H](C)C(=O)N[C@@H](CC(C)C)C(=O)N[C@@H](CCCNC(=N)N)C(=O)N[C@@H](CCC(=O)O)C(=O)N[C@@H](CCC(=O)O)C(=O)N[C@@H](Cc1ccc(O)cc1)C(=O)N[C@@H](Cc1ccccc1)C(=O)N[C@@H](CC(=O)O)C(=O)O [Peptide 3563.0027]	80
3) CC[C@H](C)[C@H](NC(=O)[C@H](CC(N)=O)NC(=O)[C@H](CCCCN)NC(=O)[C@H](CC(C)C)NC(=O)[C@H](Cc1ccccc1)NC(=O)[C@H](CCCNC(=N)N)NC(=O)[C@H](CC(C)C)NC(=O)[C@H](Cc1c[nH]cn1)NC(=O)CNC(=O)[C@@H](N)CCC(=O)O)C(=O)N[C@H](C(=O)N[C@@H](CC(C)C)C(=O)N1CCC[C@H]1C(=O)N[C@H](C(=O)N[C@@H](Cc1ccc(O)cc1)C(=O)O)C(C)C)[C@@H](C)CC [Peptide 3563.0021]	61
4) CC(C)C[C@H](NC(=O)[C@H](C)NC(=O)[C@H](Cc1ccccc1)NC(=O)[C@H](CO)NC(=O)[C@H](CO)NC(=O)[C@@H](NC(=O)[C@H](CCCNC(=N)N)NC(=O)[C@H](CC(C)C)NC(=O)[C@H](CCCCN)NC(=O)[C@H](CCCCN)NC(=O)[C@@H](N)Cc1ccc(O)cc1)[C@@H](C)O)C(=O)N[C@@H](CC(N)=O)C(=O)N[C@@H](CC(C)C)C(=O)N1CCC[C@H]1C(=O)N[C@H](C(=O)O)[C@@H](C)O [Peptide 3563.0022]	3.3
5) CSCC[C@H](NC(=O)[C@H](CC(C)C)NC(=O)[C@H](Cc1ccc(O)cc1)NC(=O)[C@H](C)NC(=O)[C@H](C)NC(=O)[C@H](CC(C)C)NC(=O)[C@H](CCCNC(=N)N)NC(=O)[C@H](CCCCN)NC(=O)[C@@H](N)CC(=O)O)C(=O)N[C@@H](CC(C)C)C(=O)N[C@@H](CCSC)C(=O)N[C@@H](CCCNC(=N)N)C(=O)N[C@@H](CO)C(=O)N1CCC[C@H]1C(=O)N[C@@H](CO)C(=O)O [Peptide 3563.0004]	1680

// returns reported IC50 for input CC[C@H](C)[C@H](NC(=O)[C@H](CC(C)C)NC(=O)[C@@H](N)Cc1ccccc1)C(=O)N[C@@H](Cc1ccc(O)cc1)C(=O)N[C@H](C(=O)N[C@H](C(=O)N[C@@H](CCC(=O)O)C(=O)N[C@@H](CC(C)C)C(=O)N[C@@H](CC(C)C)C(=O)N[C@@H](CCCCN)C(=O)N[C@@H](CCCCN)C(=O)N[C@@H](CC(C)C)C(=O)N[C@@H](CCC(N)=O)C(=O)N[C@@H](CO)C(=O)N[C@H](C(=O)O)[C@@H](C)O)[C@@H](C)O)[C@@H](C)CC [Peptide 3563.0030]
96

For the compound shown here, CC[C@H](C)[C@H](NC(=O)[C@H](CC(=O)O)NC(=O)[C@H](CC(C)C)NC(=O)[C@H](CC(C)C)NC(=O)[C@H](CCC(=O)O)NC(=O)[C@@H](N)CCC(N)=O)C(=O)N[C@@H](C)C(=O)N[C@@H](CC(N)=O)C(=O)N[C@@H](Cc1ccc(O)cc1)C(=O)N[C@@H](CC(C)C)C(=O)N[C@@H](CCSC)C(=O)N[C@@H](CCC(=O)O)C(=O)N[C@@H](CCC(N)=O)C(=O)N[C@H](C(=O)N[C@@H](CCC(N)=O)C(=O)O)[C@@H](C)CC [Peptide 3563.0003] , give the reported IC50.
1780

For the compound shown here, CC[C@H](C)[C@H](NC(=O)[C@H](CO)NC(=O)[C@H](Cc1ccc(O)cc1)NC(=O)[C@H](CC(C)C)NC(=O)[C@H](CCCCN)NC(=O)CN)C(=O)N[C@@H](CC(C)C)C(=O)N[C@@H](CCCCN)C(=O)N[C@H](C(=O)N[C@@H](CCC(N)=O)C(=O)N[C@@H](CO)C(=O)N1CCC[C@H]1C(=O)N[C@@H](CC(C)C)C(=O)N[C@@H](Cc1ccccc1)C(=O)N[C@H](C(=O)O)[C@@H](C)O)[C@@H](C)CC [Peptide 3563.0016] , give the reported IC50.
9070

I am curious: what IC50 value has been reported for CC[C@H](C)[C@H](NC(=O)[C@H](CC(C)C)NC(=O)[C@H](CO)NC(=O)[C@@H](NC(=O)[C@@H](NC(=O)[C@@H](N)CCCCN)[C@@H](C)CC)C(C)C)C(=O)N[C@@H](CCCCN)C(=O)N[C@@H](CC(N)=O)C(=O)N[C@@H](CC(C)C)C(=O)N[C@@H](CC(C)C)C(=O)N[C@H](C(=O)N[C@@H](C)C(=O)N[C@@H](CC(C)C)C(=O)N[C@@H](CCCCN)C(=O)N[C@@H](CC(=O)O)C(=O)O)C(C)C [Peptide 3563.0028] ?
657

Field request: IC50 | item: CC[C@H](C)[C@H](NC(=O)[C@H](C)NC(=O)[C@H](CCCCN)NC(=O)[C@H](Cc1ccccc1)NC(=O)[C@@H](NC(=O)[C@H](CCC(=O)O)NC(=O)[C@@H](N)CCC(N)=O)C(C)C)C(=O)N[C@@H](CCC(N)=O)C(=O)N[C@@H](CO)C(=O)N[C@@H](CC(C)C)C(=O)N[C@@H](CCCCN)C(=O)N[C@H](C(=O)N[C@H](C(=O)N[C@@H](CCC(=O)O)C(=O)N[C@H](C(=O)O)C(C)C)[C@@H](C)O)[C@@H](C)O [Peptide 3563.0024]
200
